system: Calvarial osteoblast; test: Cytotoxicity in rat calvarial osteoblasts assessed as reduction in cell viability at 1 pM to 1 uM incubated for 48 hrs by MTT assay; assay type: cell-based
quantity-kind: Activity

>>> df
                                   compound     result
0  COc1ccc(C(=O)c2cc3cc(C4C(C#N)=C(N)OC5=C4C(=O)CC(C)(C)C5)cc(C)c3o2)cc1 (stereo unspecified)  Non-Toxic
1  CCc1cc(C2C(C#N)=C(N)OC3=C2C(=O)CC(C)(C)C3)cc2cc(C(=O)c3ccc(OC)cc3)oc12 (stereo unspecified)  Non-Toxic
2  Cc1ccc(C(=O)c2cc3cc(C4C(C#N)=C(N)OC5=C4C(=O)CC(C)(C)C5)cc(C)c3o2)cc1 (stereo unspecified)  Non-Toxic
3  Cc1ccc(C(=O)c2cc3cc(C4C(C#N)=C(N)OC5=C4C(=O)CC(C)(C)C5)cc(C(C)(C)C)c3o2)cc1 (stereo unspecified)  Non-Toxic
4  COc1ccc(C(=O)c2cc3cc(C4C(C#N)=C(N)OC5=C4C(=O)CC(C)(C)C5)cc(C(C)(C)C)c3o2)cc1 (stereo unspecified)  Non-Toxic

Proceeding to the next compound to report its Activity.
Please report the recorded Activity for CC1(C)CC(=O)C2=C(C1)OC(N)=C(C#N)C2c1cc(C(C)(C)C)c2oc(C(=O)c3ccc(Cl)cc3)cc2c1 (stereo unspecified) .
Non-Toxic

Hello, the source for this data is ChEMBL document CHEMBL4190385, in case you need it.
